Tested on: Crude diglycosidase
Experiment: Examination of substrate concentration in the conversion into isoflavone aglycons by diglycosidase using soybean materials;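 further: percent of the isoflavone family total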
Type: biochemical, Penicillium multicolor IAM7153
Conditions: concentrated soybean protein, substrate concentration 20%, heat treatment of enzyme no, reaction time 0 h
Protocol: Into 20 mM acetate buffer of pH 4.0 was suspended 0.1 g, 0.25 g, 0.5 g, 1.0 g, or 1.5 g of each of various soybean materials (roasted soy flour (manufactured by Fuji Shokuryo K.K.), soymilk (manufactured by Gitoh Shokuhin K.K.), defatted soybean (manufactured by Fuji Seiyu K.K.), concentrated soybean protein (manufactured by Fuji Seiyu K.K.)). The pH of the suspension was measured and the liquid volume was adjusted to 4.5 mL while the pH was adjusted to 4.0 with 1N hydrochloric acid. […]
measurementName: Decomposition efficiency: ratio of each glycoside/aglycon within its isoflavone family (%)

[
  {
    "smi": "COc1cc2c(=O)c(-c3ccc(O)cc3)coc2cc1O[C@@H]1O[C@H](COC(C)=O)[C@@H](O)[C@H](O)[C@H]1O",
    "observedResult": 35.9
  }
]

1: COc1cc2c(=O)c(-c3ccc(O)cc3)coc2cc1O[C@@H]1O[C@H](COC(=O)CC(=O)O)[C@@H](O)[C@H](O)[C@H]1O
2: O=c1c(-c2ccc(O)cc2)coc2cc(O[C@@H]3O[C@H](CO)[C@@H](O)[C@H](O)[C@H]3O)cc(O)c12
3: COc1cc2c(=O)c(-c3ccc(O)cc3)coc2cc1O
Hey, can you sort those compounds up there by Decomposition efficiency: ratio of each glycoside/aglycon within its isoflavone family, smallest first? Response field: labels, in requested order.
1, 3, 2

###

tested on: Diglycosidase derived from P. multicolor; assay: Reactivity toward various isoflavone glycosides (HPLC); format: biochemical, Penicillium multicolor; design: unit not given here; settings: Reaction time 0 h; 55 °C, pH 4.0
measurementName: aglycon

[
  {
    "compound": "O=C(O)CC(=O)OC[C@H]1O[C@@H](Oc2cc(O)c3c(=O)c(-c4ccc(O)cc4)coc3c2)[C@H](O)[C@@H](O)[C@@H]1O [malonylgenistin, 6″-O-malonylgenistin]",
    "aglycon": 0
  },
  {
    "compound": "CC(=O)OC[C@H]1O[C@@H](Oc2ccc3c(=O)c(-c4ccc(O)cc4)coc3c2)[C@H](O)[C@@H](O)[C@@H]1O [acetyldaidzin, 6″-O-acetyldaidzin]",
    "aglycon": 0
  },
  {
    "compound": "O=c1c(-c2ccc(O)cc2)coc2cc(O[C@@H]3O[C@H](CO)[C@@H](O)[C@H](O)[C@H]3O)cc(O)c12 [genistin]",
    "aglycon": 0
  },
  {
    "compound": "COc1cc2c(=O)c(-c3ccc(O)cc3)coc2cc1O[C@@H]1O[C@H](CO)[C@@H](O)[C@H](O)[C@H]1O [glycitin]",
    "aglycon": 0
  },
  {
    "compound": "COc1cc2c(=O)c(-c3ccc(O)cc3)coc2cc1O[C@@H]1O[C@H](COC(=O)CC(=O)O)[C@@H](O)[C@H](O)[C@H]1O [malonylglycitin, 6″-O-malonylglycitin]",
    "aglycon": 0
  },
  {
    "compound": "COc1cc2c(=O)c(-c3ccc(O)cc3)coc2cc1O[C@@H]1O[C@H](COC(C)=O)[C@@H](O)[C@H](O)[C@H]1O [acetylglycitin, 6″-O-acetylglycitin]",
    "aglycon": 0
  }
]
